The measured values listed here are drawn from patent US20030068675.

# target-under-test: ZFP SBS#725 (synthetic)
# Sequence (chain, as listed by the source): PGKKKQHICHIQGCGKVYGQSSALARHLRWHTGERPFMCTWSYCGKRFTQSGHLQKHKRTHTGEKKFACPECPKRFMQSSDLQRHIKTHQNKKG
# assay-method-text: EMSA
# measurement-context: tags: MBP fusion
measured-metric: Kd (µM)
Field format: number, assumed µM, no unit text.

GCTTGAGTTA (dsDNA) DNA 1: GCTTGAGTTA DNA 2: TAACTCAAGC yielded Kd of 3
